Tested on: EKVX NSCLC
Test: NCI-60 one-dose screen, 48 h
Conditions: 10 µM unless noted
The panel holds about 83,000 compounds, 20% with a hit somewhere; the sample as a whole holds those more often. Calls of active or inactive are those of the source. The calls were made as follows: active = growth percent below 10; inactive = the rest.
Outcome (select one): YES = active, NO = inactive

Reference set (3 entries):
| compound | label |
| --- | --- |
| CCOP(=O)(OCC)OC[C@]12CCC(C)(C)C=C1[C@H]1CC[C@@H]3[C@@]4(C)CC[C@H](OP(=O)(OCC)OCC)C(C)(C)[C@@H]4CC[C@@]3(C)[C@]1(C)CC2 | YES |
| Cc1cc(-c2ccc(Cl)cc2)n(Cc2nnc(SCC(=O)Nc3ccc(S(N)(=O)=O)cc3)n2C2CCCCC2)n1 | NO |
| Cc1ccc(S(=O)(=O)NCCNc2nc(Nc3ccc(N4CCN(C)CC4)cc3)nc3ccsc23)cc1 | NO |

INPUT: Would you mind telling me which call this test gave Cc1ccc2c(c1)Oc1nc(N)c(C#N)c(N)c1C2Sc1ccc(F)cc1 (centres undefined) ?
OUTPUT: YES

INPUT: Would you mind telling me which call this test gave O=C(CNc1nc(-c2cccc([N+](=O)[O-])c2)cs1)Nc1cccc(Cl)c1 ?
OUTPUT: NO

INPUT: Would you mind telling me which call this test gave Cc1cc2nc(C(Cl)Cl)nc(-c3cccs3)n2n1 ?
OUTPUT: YES

INPUT: Would you mind telling me which call this test gave CCN(CC)c1ccc2c(c1)Oc1nc(N)c(C#N)c(N)c1C2Sc1ccc(C)cc1 (centres undefined) ?
OUTPUT: YES

INPUT: Would you mind telling me which call this test gave NC(N)=Nc1ccc(Oc2cccc(NC(N)=Nc3ccc(I)cc3F)c2)cn1 ?
OUTPUT: NO

INPUT: Would you mind telling me which call this test gave NS(=O)(=O)c1ccc(Nc2nc(N/N=C/c3ccccn3)nc(Nc3ccccc3)n2)cc1 ?
OUTPUT: NO

These measurements were taken from PubChem BioAssay (NCI).
